log10 IC50 for assorted compounds
# test_system: MKNK1 (Homo sapiens, UniProt Q9BUB5, T385D)
# Construct: GST (N); purchased Carna Biosciences 02-145; host or cells: insect cells (baculovirus expression system)
# Sequence (Q9BUB5 1-424 isoform Q9BUB5-2 T344D): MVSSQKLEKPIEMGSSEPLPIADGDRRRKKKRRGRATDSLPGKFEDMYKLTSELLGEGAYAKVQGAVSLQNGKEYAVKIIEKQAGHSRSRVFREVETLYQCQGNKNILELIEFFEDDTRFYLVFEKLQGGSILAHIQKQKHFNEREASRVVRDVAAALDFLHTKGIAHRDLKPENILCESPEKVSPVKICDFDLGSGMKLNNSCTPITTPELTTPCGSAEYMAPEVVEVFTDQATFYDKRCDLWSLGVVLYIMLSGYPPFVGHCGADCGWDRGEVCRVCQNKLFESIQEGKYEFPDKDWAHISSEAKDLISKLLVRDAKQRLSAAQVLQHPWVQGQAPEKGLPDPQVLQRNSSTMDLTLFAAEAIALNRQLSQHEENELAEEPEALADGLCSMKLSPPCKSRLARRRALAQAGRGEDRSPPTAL
# test_details: MKNK1 kinase assay (MKNK1 TR-FRET assay)
# Assay type: biochemical
# applied_conditions: Table 1d; 10 μM ATP, 15 min preincubation
Recall that a logarithmic scale is used here: each number is log10 of IC50 in nM.

CC(=O)N1CCC[C@H]1CCOc1ccc2ncc(-c3cc4cnccc4o3)n2n1; 0.70
CC(C)Oc1nccc2oc(-c3cnc4ccc(OC[C@H]5CNCC(=O)N5)nn34)cc12; 1.34
COc1nccc2oc(-c3cnc4ccc(OC[C@H]5CCC(=O)N5)nn34)cc12; 0.60
CC(C)(C)COc1nccc2oc(-c3cnc4ccc(OC[C@H]5CCC(=O)N5)nn34)cc12; 0.30
COc1nccc2oc(-c3cnc4ccc(OCC5CCCC(=O)N5)nn34)cc12 (centres unmarked); 0.48
CC(C)(C)C(=O)N1CCC[C@H]1CCOc1ccc2ncc(-c3cc4cnccc4o3)n2n1; 0.00

Any idea what its log10 IC50 is? The compound is `CC(C)Oc1nccc2oc(-c3cnc4ccc(OC[C@H]5CCC(=O)N5)nn34)cc12`
0.30

Any idea what its log10 IC50 is? The compound is `COc1nccc2oc(-c3cnc4ccc(OC[C@H]5CN(C(=O)C(F)(F)F)CCO5)nn34)cc12`
0.85
